# Test name: bioavailability of IP3 in pigs: concentration of IP3 in blood samples and AUC after intravenous injection, intraduodenal/oral formulation and oral sodium salt
# Conditions: pig, in vivo, iv
# Method: The blood samples were assayed for the content of IP3 and these measurements were used for the calculation of the reference data as 100% of the substance is introduced into the blood stream after an intravenous injection. […] Blood samples were collected at the time intervals mentioned above and the concentration of IP3 was determined in each sample. […] Blood samples were collected at the same time intervals as above and the concentration of IP3 was determined. […]
Structures can show the parent of a compound that is named as a salt.

{"columns": ["Compound", "concentration at 0.5 h (µM)"],
 "data": [
  ["O=P(O)(O)O[C@@H]1[C@H](OP(=O)(O)O)[C@H](O)[C@@H](O)[C@H](O)[C@H]1OP(=O)(O)O [sodium salt of IP3, D-myo-inositol-1,2,6-trisphosphate]", 40]
]}
